assay: lethal dose in the rat and therapeutical index; details: in vivo; rat; route printed "/oa"
experimental.endpoint: LD50
Please state the number and follow it with the unit.

Notebook: CSC[C@H]1O[C@@H](n2cnc3c(N)ncnc32)[C@H](O)[C@@H]1O [MTA, 5'-deoxy-5'-methyl-thioadenosine] , LD50 read as 200 mg/kg

* * *

I'd appreciate it if you could supply LD50 values for the items below.
experiment: acute toxicity, DL50 in the mouse; details: in vivo, po, orally

CSC[C@H]1O[C@@H](n2cnc3c(N)ncnc32)[C@H](O)[C@@H]1O	> 2000 mg/kg

Lab note: C[S+]([O-])C[C@H]1O[C@@H](n2cnc3c(N)ncnc32)[C@H](O)[C@@H]1O (some centres unmarked) [MTA sulphoxide, methylthioadenosine sulphoxide] gave LD50 of > 2000 mg/kg

* * *

assay: acute toxicity, DL50 in the mouse; conditions: in vivo, iv, intravenously
experimental.endpoint: LD50 (mg/kg)
Give bare numbers, in mg/kg.

Documented LD50 of C[S+]([O-])C[C@H]1O[C@@H](n2cnc3c(N)ncnc32)[C@H](O)[C@@H]1O (stereo partly shown) [MTA sulphoxide, methylthioadenosine sulphoxide] : 400

* * *

assay: lethal dose in the rat and therapeutical index; conditions: in vivo; edema test in the rat; read-out: therapeutical index (TI)
experimental.endpoint: selectivity ratio
Numbers only.

Per the record, COc1ccc2c(c1)c(CC(=O)O)c(C)n2C(=O)c1ccc(Cl)cc1 [Indomethacine, reference compound] has selectivity ratio of 1.3

* * *

experiment: granuloma test in the rat by cotton pellets; assay type: in vivo; settings: in vivo, 9 mg/kg, oral, read-out: TI (granuloma test)
experimental.endpoint: selectivity ratio

Measured selectivity ratio, CSC[C@H]1O[C@@H](n2cnc3c(N)ncnc32)[C@H](O)[C@@H]1O [MTA, 5'-deoxy-5'-methyl-thioadenosine] : 222
